EXPERIMENTAL PROTOCOL: NCI Yeast Anticancer Drug Screen. Data for the cln2 rad14 strain (AID 165);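 also: 0% = growth equal to vehicle treated cultures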
CONDITION SET: S. cerevisiae cln2 rad14 strain, at 50.0 µM, hits give high values
This is part of a sample that, as a whole, favours compounds with a hit. Of some 79,000 tested, about 15% had one in any assay.
ENDPOINT NAME: growth inhibition (%)
The response must be a number in % with no trailing unit.

N#CCCC1(CCC#N)CCCCCCC(CCC#N)(CCC#N)C(O)C1O (stereo not given)
3.15
Cc1ccc(S(=O)(=O)c2c(N)c3nc4ccccc4n3c3nc4ccccc4nc23)cc1
25.7
CC1=CC[C@H]2C(C)=CC[C@@H](C(C)C)[C@@H]2C1
21.6
O=C1CCC2(CC1)Cc1ccccc1C2O (stereo not given)
29.4

Lab note: measured growth inhibition of Cc1cc(Br)c2c(c1N)C(=O)c1ccccc1C2=O was -7.75

----------
EXPERIMENTAL PROTOCOL: NCI Yeast Anticancer Drug Screen. Data for the bub3 strain (AID 167)
CONDITION SET: S. cerevisiae bub3 mutant strain, at 50.0 µM, hits give high values
This is part of a sample that, as a whole, favours compounds with a hit. Of some 79,000 tested, about 15% had one in any assay.
ENDPOINT NAME: growth inhibition (%)
The response must be a number in % with no trailing unit.

Observe how each entry below is paired with its result.
CCOC(OCC)N(C)C
-5.5
CN(C)OC(=O)Nc1cccc([N+](=O)[O-])c1
4.8

Lab note: measured growth inhibition of Nc1nc(-c2ccccc2)cc2ccccc12 was -13.2

----------
EXPERIMENTAL PROTOCOL: NCI Yeast Anticancer Drug Screen. Data for the mec2-1 strain (AID 157)
CONDITION SET: S. cerevisiae mec2-1 strain, at 50.0 µM, hits give high values
Compounds without any hit were thinned out: in the full panel of roughly 79,000, 15% have a hit.
ENDPOINT NAME: growth inhibition (%)
The response must be a number in % with no trailing unit.

Observe how each entry below is paired with its result.
CN(C)c1ccc(S(=O)c2ccc(N(C)C)cc2)cc1
-27.9
N#CCCN(CCC#N)c1ccc(/C=C2\CC(O)(c3ccccc3)N(c3ccc(Cl)cc3)C2=O)cc1 (stereo not drawn)
0.35

Lab note: measured growth inhibition of O=Cc1c2c(cc3c1CC1(C3)Cc3cc4c(c(C=O)c3C1)CCC4)CCC2 was -40.1

Lab note: measured growth inhibition of Oc1ccc(Cl)cc1/C=N\NC(=S)Nc1ccc2cn[nH]c2c1 was 10.1

Lab note: measured growth inhibition of O=C(OCC1OC(n2cnc3c(Cl)ncnc32)C(OC(=O)c2ccccc2)C1OC(=O)c1ccccc1)c1ccccc1 (stereo not drawn) was -21.2

Lab note: measured growth inhibition of COc1cc(-c2cc(CCC(=O)Nc3ccccc3[N+](=O)[O-])n(-c3ccc([N+](=O)[O-])cc3[N+](=O)[O-])n2)ccc1O was -5.5

Lab note: measured growth inhibition of O=c1c2cc(-c3ccccc3)sc2nc2n1N=C(c1ccccc1)CS2 was -2.7

Lab note: measured growth inhibition of CCCCCCCC(=O)Oc1ccccc1 was -10.5

Lab note: measured growth inhibition of O=S(=O)(O)C(O)Cc1cccc2ccccc12 (stereo not drawn) was -8.25

Lab note: measured growth inhibition of COC(=O)C(N)CSc1ccc([N+](=O)[O-])cc1[N+](=O)[O-] (stereo not drawn) was 39.5

Lab note: measured growth inhibition of CC1(c2ccccc2)CCN(C2CC2)CO1 (stereo not drawn) was 15.2

Lab note: measured growth inhibition of C=CCN1C(C)(C)NC(=S)C1(C)C was -4.9

Lab note: measured growth inhibition of O=C1NC(=S)NC(=O)C1=Cc1ccccc1OCc1ccccc1 was -16.1

----------
EXPERIMENTAL PROTOCOL: NCI Yeast Anticancer Drug Screen. Data for the bub3 strain (AID 167)
CONDITION SET: S. cerevisiae bub3 mutant strain, at 50.0 µM, hits give high values
The panel holds about 79,000 compounds, 15% with a hit somewhere; the sample as a whole holds those more often.
Entries and their growth inhibition values follow.
The response must be a number in % with no trailing unit.

Cc1cc(C)c(C(=O)CCC(=O)O)c(C)c1
-4.7
CSc1nc(COC(=O)NC(C)C)c(COC(=O)NC(C)C)n1Cc1ccccc1
5.4
COC(=O)C1C2CC3c4[nH]c5cc(OC)ccc5c4CCN3CC2CC(OC(=O)CCc2cc(OC)c(OC)c(OC)c2)C1OC (centres undefined)
14.7

Lab note: measured growth inhibition of CCOC(=O)C1Sc2ccccc2N=C1C (centres undefined) was -10.6

----------
Entries and their growth inhibition values follow.
EXPERIMENTAL PROTOCOL: NCI Yeast Anticancer Drug Screen. Data for the mlh1 rad18 strain (AID 175)
CONDITION SET: S. cerevisiae mlh1 rad18 strain growth inhibition; at 50.0 µM; hits give high values
The panel holds about 79,000 compounds, 15% with a hit somewhere; the sample as a whole holds those more often.
The response must be a number in % with no trailing unit.

Observe how each entry below is paired with its result.
C1CCN(c2nsc(N3CCCCC3)n2)CC1
18.2
CCCCCCCCN1N=CC(CC)C1CCC (stereo not given)
1.45
CCC(C=NCCBr)(CCC(=O)OC)CCC(=O)OC
10.2

Lab note: measured growth inhibition of CC(=O)c1ccc([C@H](O)[C@H](CO)NC(=O)C(Cl)Cl)cc1 was -16.2

Lab note: measured growth inhibition of CC(NC(=O)c1ccc(C(C[N+](=O)[O-])SCCC(=O)O)cc1)C(=O)O (stereo not given) was 1.2

----------
EXPERIMENTAL PROTOCOL: NCI Yeast Anticancer Drug Screen. Data for the bub3 strain (AID 167)
CONDITION SET: S. cerevisiae bub3 mutant strain, at 50.0 µM, hits give high values
Protocol: Growth inhibition of yeast strains with defined genetic alterations is measured as a screen for potential anti-cancer activity. Selected strains with alterations in DNA damage repair or cell cycle control were exposed to compounds and growth inhibition was measured relative to vehicle treated controls. The strain used in this assay is bub3
Compounds without any hit were thinned out: in the full panel of roughly 79,000, 15% have a hit.
ENDPOINT NAME: growth inhibition (%)
The response must be a number in % with no trailing unit.

Observe how each entry below is paired with its result.
Cc1ccc(CNC(=O)C2CCCCC2C(=O)O)cc1 (stereo unspecified)
27.9
CSc1ccc(NC(=O)Nc2cc(Cl)c(Cl)cc2C)cc1
35
C/C=C/c1nc2ccccc2[nH]1
-6.45

Lab note: measured growth inhibition of Cc1cccc(C)c1NC(=O)C(=O)C(C#N)c1c(Cl)cccc1Cl (stereo unspecified) was -4.85

Lab note: measured growth inhibition of CNC(=O)NC(c1cc(OC)c(O)c(OC)c1)c1cc2c(cc1O)OCO2 (stereo unspecified) was 8.05

Lab note: measured growth inhibition of CSCCC(N)=O was -16.8

Lab note: measured growth inhibition of CCc1cccc(C(=O)NCCN(C)C)c1[N+](=O)[O-] was -11.9

Lab note: measured growth inhibition of CC(NC(=O)C1CCCN1C(=O)OCc1ccccc1)C(=O)O (stereo unspecified) was -13.2

Lab note: measured growth inhibition of COc1ccc(CC#N)cc1OC was -31.4

Lab note: measured growth inhibition of CCN1CC(O)Cc2ccccc21 (stereo unspecified) was -8.35

Lab note: measured growth inhibition of c1ccc(N2CCN(c3ccccn3)CC2)nc1 was -13.7

----------
Entries and their growth inhibition values follow.
EXPERIMENTAL PROTOCOL: NCI Yeast Anticancer Drug Screen. Data for the bub3 strain (AID 167)
CONDITION SET: S. cerevisiae bub3 mutant strain, at 50.0 µM, hits give high values
Compounds without any hit were thinned out: in the full panel of roughly 79,000, 15% have a hit.
The response must be a number in % with no trailing unit.

C=CCOC(=O)C(CC=C)C(C)=O (configuration not stated)
-19.8
COC(=O)CCC1=C(C)C2=NC1=CC1=NC(=CC3=NC(=Cc4[nH]c(/c(=C\O)c4C)=C2)C(C=O)=C3C)C(C)=C1CCC(=O)OC
9.15
CCCCCCCCCCCCCC(=O)OCCN(C)C
-14.4
S=c1nc[nH]c2nc(Cl)[nH]c12
-26.6
COc1cc(NS(C)(=O)=O)ccc1Nc1c2ccc(N(C)C)cc2nc2cc(N(C)C)ccc12
-8.6

Now, please, on to the next molecule.
Lab note: measured growth inhibition of O=C(CC(=O)c1ccccc1)CC(Nc1ccccc1)c1ccccc1 (configuration not stated) was 7.55

----------
EXPERIMENTAL PROTOCOL: NCI Yeast Anticancer Drug Screen. Data for the bub3 strain (AID 167)
CONDITION SET: S. cerevisiae bub3 mutant strain, at 50.0 µM, hits give high values
The panel holds about 79,000 compounds, 15% with a hit somewhere; the sample as a whole holds those more often.
Entries and their growth inhibition values follow.
The response must be a number in % with no trailing unit.

Nc1nc(N)c2c(n1)CCC(CNc1ccc(C(=O)NC(CCC(=O)O)C(=O)O)cc1)C2 (stereo not drawn)
-3.8
S=c1nc[nH]c2c1ncn2C1CCCC1
-0.3
CC(C)(C)N1CC(C(O)c2ccccc2)C1c1ccccc1 (stereo not drawn)
-11.4
FC1(F)SC2c3ccccc3CC2C1(F)F (stereo not drawn)
8.35
CCN(CC)C(=O)c1c(-c2ccccc2)nc(-c2ccccc2)c(C(=O)N(CC)CC)c1Cl
1.05

Now, please, on to the next compound.
Lab note: measured growth inhibition of O=C1c2ccccc2CCC12OC2c1ccncc1 (stereo not drawn) was 39.4
